MEASURED_ON: Man(a1-3)[Man(a1-6)]Man(a1-6)[Man(a1-3)]Man(b1-4)GlcNAc(b1-4)GlcNAc
ASSAY_REMARKS: glycan array binding signal (z-score within array); higher = stronger binding
STUDY_CONDITIONS: glycan notation: IUPAC condensed, linker removed
This excerpt belongs to a sample that is enriched for the strongest signals.
METRIC_NAME: glycan array binding signal (z-score)
No unit in the answer, please; the number alone is enough.

BINDER | glycan array binding signal (z-score)
PEB4 (Campylobacter jejuni), A1VYV6 (protein) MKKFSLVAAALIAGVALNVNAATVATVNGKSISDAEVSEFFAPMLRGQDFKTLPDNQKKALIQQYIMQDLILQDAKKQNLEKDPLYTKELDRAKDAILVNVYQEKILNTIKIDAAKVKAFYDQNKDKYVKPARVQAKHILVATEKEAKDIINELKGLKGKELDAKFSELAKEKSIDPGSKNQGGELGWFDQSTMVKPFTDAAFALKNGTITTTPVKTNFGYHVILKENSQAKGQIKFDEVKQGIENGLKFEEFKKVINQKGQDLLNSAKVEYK | -0.553

# next binder below
State, in one line, measured glycan array binding signal (z-score) of cupB6 (Pseudomonas aeruginosa), Q02SP7 (protein) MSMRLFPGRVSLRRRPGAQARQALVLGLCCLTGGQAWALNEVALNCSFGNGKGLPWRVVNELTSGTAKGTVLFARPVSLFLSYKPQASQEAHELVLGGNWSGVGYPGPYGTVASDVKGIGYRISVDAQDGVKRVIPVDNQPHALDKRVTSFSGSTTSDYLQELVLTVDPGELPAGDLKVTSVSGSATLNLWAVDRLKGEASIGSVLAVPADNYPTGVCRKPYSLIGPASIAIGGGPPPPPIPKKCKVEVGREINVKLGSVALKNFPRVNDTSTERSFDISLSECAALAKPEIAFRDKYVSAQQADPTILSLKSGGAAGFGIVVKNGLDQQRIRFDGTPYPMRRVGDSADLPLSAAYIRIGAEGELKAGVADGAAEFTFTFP
-0.11
